B1: CPEB3 Ribozyme (parent)
chain: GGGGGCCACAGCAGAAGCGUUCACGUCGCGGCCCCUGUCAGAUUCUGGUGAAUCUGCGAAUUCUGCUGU

Variants of: B1
Test: self-cleavage, relative activity (ratio to wild type); higher = more cleavage; co-transcriptional
# self-cleavage values compiled below
measurementName: self-cleavage

> print(dat)
          var  quantitativeresult
 1  C57U C63A               0.438
 2  G17C U26G               0.175
 3   G2A G48A               0.213
 4  G37C U55A                0.25
 5  C22A A51G               0.169
 6  G14U U46A               0.862
 7  A23C G65U               0.674
 8  U46A G56A               0.997
 9   G1U C63U              0.0897
10   A8C A13C               0.927
11   A8G C57A               0.126
12  G41U C54U                0.94
13       U53A               0.973
14  G14U C24G               0.109
15  U49G C63A               0.952
16  C45G G56A               0.881
17  A16U C22A                0.12
18  A60U C63G                0.38
19  C34G U49G                0.64
20    G5A C6A               0.103
21  G25A C34A               0.196
22  C34U U44A               0.963

Reference for the values: the RNAGym collection of RNA variant scans (doi:10.7554/elife.80360)
